# Tested on: Escherichia coli ATCC 25922
# Format: cell-based
# test.conditions: broth microdilution in MHB, peptide 128 down to 0.5 µg/mL, 20–24 h at 37 °C, no visible growth; range of three independent experiments
Residues, ends and D or L forms follow the SMILES beside them.
assay.metric: MIC, E. coli ATCC 25922

q: Tell us which MIC, E. coli ATCC 25922 value is on record for CC(C)C[C@H](NC(=O)CNC(=O)[C@@H](NC(=O)[C@@H](NC(=O)CNC(=O)[C@H](CS)NC(=O)[C@H](CC(C)C)NC(=O)[C@@H](NC(=O)[C@H](CCCCN)NC(=O)[C@H](CCCCN)NC(=O)CNC(=O)[C@@H](NC(=O)CNC(=O)[C@H](CC(C)C)NC(=O)[C@@H](NC(=O)[C@H](CCCCN)NC(=O)CNC(=O)[C@H](CC(C)C)NC(=O)[C@H](CC(C)C)NC(=O)CN)C(C)C)C(C)C)C(C)C)C(C)C)[C@@H](C)O)C(=O)N[C@@H](CS)C(=O)O [PeNi1] (H-GLLGKVLGVGKKVLCGVTGLC-OH)
a: 4 µg/mL

q: Tell us which MIC, E. coli ATCC 25922 value is on record for CC(C)C[C@H](NC(=O)CN)C(=O)N[C@@H](CC(C)C)C(=O)NCC(=O)N[C@@H](CCCCN)C(=O)N[C@H](C(=O)N[C@@H](CC(C)C)C(=O)NCC(=O)N[C@H](C(=O)NCC(=O)N[C@@H](CCCCN)C(=O)N[C@@H](CCCCN)C(=O)N[C@H](C(=O)N[C@@H](CC(C)C)C(=O)N[C@@H](CS)C(=O)NCC(=O)N[C@H](C(=O)N[C@@H](CO)C(=O)NCC(=O)N[C@@H](CCCNC(=N)N)C(=O)N[C@@H](CS)C(=O)O)C(C)C)C(C)C)C(C)C)C(C)C [RaOm4] (H-GLLGKVLGVGKKVLCGVSGRC-OH; N-terminus and C-terminus assumed)
a: 4 to 8 µg/mL

---

# System: Staphylococcus aureus ATCC 29213
# Format: cell-based
# test.conditions: broth microdilution in MHB, peptide 128 down to 0.5 µg/mL, 20–24 h at 37 °C, no visible growth; range of three independent experiments
Residues, ends and D or L forms follow the SMILES beside them.
assay.metric: MIC, S. aureus ATCC 29213

q: Tell us which MIC, S. aureus ATCC 29213 value is on record for CC[C@H](C)[C@H](NC(=O)CN)C(=O)N[C@@H](CC(C)C)C(=O)N[C@@H](CO)C(=O)NCC(=O)N[C@@H](CC(C)C)C(=O)N[C@@H](CC(C)C)C(=O)NCC(=O)N[C@@H](C)C(=O)NCC(=O)N[C@@H](CCCCN)C(=O)N[C@@H](CCCCN)C(=O)N[C@H](C(=O)N[C@H](C(=O)N[C@@H](CS)C(=O)NCC(=O)N[C@@H](CC(C)C)C(=O)N[C@@H](CO)C(=O)NCC(=O)N[C@@H](CC(C)C)C(=O)N[C@@H](CS)C(=O)O)C(C)C)[C@@H](C)CC [OdMa5] (H-GILSGLLGAGKKIVCGLSGLC-OH; N-terminus and C-terminus assumed)
a: 8 to 16 µg/mL

---

Below, each of the compounds is paired with its reported MIC, S. aureus ATCC 29213 value.
# Test system: Staphylococcus aureus ATCC 29213
# Assay type: cell-based
# test.conditions: broth microdilution in MHB, peptide 128 down to 0.5 µg/mL, 20–24 h at 37 °C, no visible growth; range of three independent experiments
Residues, ends and D or L forms follow the SMILES beside them.

Example cases with answers are listed next.
{"columns": ["compound", "measured.on", "MIC, S. aureus ATCC 29213"],
 "data": [
  ["CC[C@H](C)[C@H](NC(=O)CNC(=O)[C@H](CO)NC(=O)[C@@H](NC(=O)[C@H](CC(C)C)NC(=O)CN)[C@@H](C)CC)C(=O)N[C@@H](CC(C)C)C(=O)NCC(=O)N[C@@H](C)C(=O)NCC(=O)N[C@@H](CCCCN)C(=O)N[C@@H](CCCCN)C(=O)N[C@H](C(=O)N[C@@H](CC(C)C)C(=O)N[C@@H](CS)C(=O)NCC(=O)N[C@@H](CC(C)C)C(=O)N[C@@H](CO)C(=O)NCC(=O)N[C@@H](CC(C)C)C(=O)N[C@@H](CS)C(=O)O)C(C)C [OdMa10] (H-GLISGILGAGKKVLCGLSGLC-OH; N-terminus and C-terminus assumed)", "Staphylococcus aureus ATCC 29213", "64 to 128 µg/mL"],
  ["CC[C@H](C)[C@H](NC(=O)[C@H](CCCCN)NC(=O)[C@H](CCCCN)NC(=O)CNC(=O)[C@@H](NC(=O)CNC(=O)[C@H](CC(C)C)NC(=O)[C@@H](NC(=O)CNC(=O)[C@H](CO)NC(=O)[C@H](CC(C)C)NC(=O)[C@H](CC(C)C)NC(=O)CN)C(C)C)C(C)C)C(=O)N[C@H](C(=O)N[C@@H](CS)C(=O)NCC(=O)N[C@@H](CC(C)C)C(=O)N[C@@H](CO)C(=O)NCC(=O)N[C@@H](CC(C)C)C(=O)N[C@@H](CS)C(=O)O)C(C)C [OdMa6] (H-GLLSGVLGVGKKIVCGLSGLC-OH; N-terminus and C-terminus assumed)", "Staphylococcus aureus ATCC 29213", "16 to 32 µg/mL"],
  ["CC(C)C[C@H](NC(=O)CN)C(=O)N[C@@H](CC(C)C)C(=O)NCC(=O)N[C@@H](CCCCN)C(=O)N[C@H](C(=O)N[C@@H](CC(C)C)C(=O)NCC(=O)N[C@H](C(=O)NCC(=O)N[C@@H](CCCCN)C(=O)N[C@@H](CCCCN)C(=O)N[C@H](C(=O)N[C@@H](CC(C)C)C(=O)N[C@@H](CS)C(=O)NCC(=O)N[C@H](C(=O)N[C@@H](CO)C(=O)NCC(=O)N[C@@H](CCCNC(=N)N)C(=O)N[C@@H](CS)C(=O)O)C(C)C)C(C)C)C(C)C)C(C)C [RaOm4] (H-GLLGKVLGVGKKVLCGVSGRC-OH; N-terminus and C-terminus assumed)", "Staphylococcus aureus ATCC 29213", "64 to 128 µg/mL"]
]}

Would you kindly look at the next entry?
q: Tell us which MIC, S. aureus ATCC 29213 value is on record for CC(C)C[C@H](NC(=O)CNC(=O)[C@H](CO)NC(=O)[C@H](CC(C)C)NC(=O)CNC(=O)[C@H](CS)NC(=O)[C@H](CC(C)C)NC(=O)[C@@H](NC(=O)[C@H](CCCCN)NC(=O)[C@H](CCCCN)NC(=O)CNC(=O)[C@@H](NC(=O)CNC(=O)[C@H](CC(C)C)NC(=O)[C@@H](NC(=O)CNC(=O)[C@H](CO)NC(=O)[C@H](CC(C)C)NC(=O)[C@H](CC(C)C)NC(=O)CN)C(C)C)C(C)C)C(C)C)C(=O)N[C@@H](CS)C(=O)O [OdMa7] (H-GLLSGVLGVGKKVLCGLSGLC-OH; N-terminus and C-terminus assumed)
a: 16 to 32 µg/mL
